Tested on: SUM149-PTXR
Experiment: Monolayer growth inhibition, crystal violet assay
Format: cell-based
Conditions: Homo sapiens, 120 h; TNBC, BRCA mutant; 5 days, single dose
Categorize each record by its IC50 using bottom end (below 5 µM), midrange (5 µM to below 8 µM), top end (8 µM or more)

C[C@@H]1CNC(=O)c2cc3ccc(NC(=O)c4cnn(Cc5cccc(N)c5)c4)nc3n21: top end
C[C@@H]1CNC(=O)c2c(Cl)c3ccc(C(=O)Nc4cnn(Cc5ccccc5)c4)nc3n21: bottom end
C[C@@H]1CNC(=O)c2cc3ccc(C(=O)Nc4cnn(Cc5cccc(N)c5)c4)nc3n21: bottom end

Now for a further compound.
Input: Band for "C[C@@H]1CNC(=O)c2cc3ccc(NC(=O)c4cnn(Cc5ccccc5)c4)nc3n21" ?
Output: top end

###

Test: Solubility assessment (20 mg/ml solution, precipitate formation, pH strips)
Type: physicochemical
Conditions: dissolved in DMSO (100 mM), diluted in DMEM
value.kind: Solubility, 20 mg/ml solution

The examples below pair each entry with its known result.
C[C@@H]1CNC(=O)c2cc3ccc(C(=O)Nc4cnn(Cc5ccc(F)cc5F)c4)nc3n21 [Compound 23]: Precipitate
C[C@@H]1CNC(=O)c2cc3ccc(C(=O)Nc4ccccc4C(N)=O)nc3n21 [Compound 21]: Soluble
C[C@@H]1CNC(=O)c2cc3ccc(C(=O)Nc4cnn(Cc5ccc(N)cc5)c4)nc3n21 [Compound 18]: Soluble
C[C@@H]1CNC(=O)c2cc3ccc(C(=O)Nc4cnn(CC5CCN(C)CC5)c4)nc3n21 [Compound 20]: Soluble
C[C@@H]1CNC(=O)c2cc3ccc(C(=O)Nc4cnn(Cc5ccc(C(F)(F)F)cc5)c4)nc3n21 [Compound 22]: Precipitate

Now consider the entry below.
Input: Kindly indicate its recorded Solubility, 20 mg/ml solution. Item: C[C@@H]1CNC(=O)c2c(Cl)c3ccc(C(=O)Nc4cnn(Cc5ccccc5)c4)nc3n21 [Compound 24]
Output: Precipitate

###

Tested on: SUM149-PTXR
Assay: Monolayer growth inhibition, crystal violet assay
Assay type: cell-based
Conditions: Homo sapiens, 120 h; TNBC, BRCA mutant; 5 days, single dose
pIC50: −log10 of the molar value. Structures can show the parent of a compound that is named as a salt.
Assign class by pIC50: not lower than 5 means Fulfilled; lower than 5 means Not fulfilled.

C[C@@H]1CNC(=O)c2cc3ccc(C(=O)Nc4cnn(Cc5ccc(F)cc5F)c4)nc3n21: Fulfilled

Input: Identify whether the reported pIC50 of the following compound is 5 or greater: "C[C@@H]1CNC(=O)c2cc3ccc(NC(=O)c4cnn(Cc5ccccc5)c4)cc3n21"
Output: Not fulfilled

Input: Reported pIC50 reaches at least 5 for "C[C@@H]1CNC(=O)c2cc3ccc(C(=O)Nc4cnn(Cc5ccccc5N)c4)nc3n21" ?
Output: Fulfilled

Input: Does pIC50 meet or surpass 5 for C[C@@H]1CNC(=O)c2cc3ccc(C(=O)Nc4cnn(Cc5ccc(CN)cc5)c4)nc3n21 [Compound 26, hydrochloride salt] ?
Output: Fulfilled

Input: Reported pIC50 at or above 5? "C[C@@H]1CNC(=O)c2cc3ccc(C(=O)Nc4ccccc4C(N)=O)nc3n21"
Output: Fulfilled

Where these numbers come from: patent US10758530B2
